Tested on: CD2F1 mice, L1210 leukemia ip, survival T/C
Test details: NCI In Vivo Anticancer Drug Screen. Data for tumor model L1210 Leukemia (intraperitoneal) in CD2F1 (CDF1) mice
Condition info: endpoint: mean survival time; dose: 12.5 mg/kg/injection; schedule: Q01DX009 (ip); vehicle: saline; higher = longer survival
Toxic doses and inconclusive results are not listed.
Observation type: T/C

// T/C lookup, key: `CN(C)CCCN1c2ccccc2Sc2ccc(C(F)(F)F)cc21`
106 % of control

Entry to check: CONc1ccn(C2OC(CO)C(O)C2O)c(=O)n1 (stereo not given)
108 % of control

Entry to check: O=S(=O)(O)c1ccc(-c2ccc(S(=O)(=O)O)cc2)cc1 (tested in a mixture with another compound)
150 % of control

Entry to check: COc1cccc2c1C(=O)c1c(O)c3c(c(O)c1C2=O)C[C@@](O)(/C(C)=N\NC(=O)CO)C[C@@H]3OC1CC(N)C(O)C(C)O1 (stereo not given in full)
101 % of control

Entry to check: `Nc1ncnc2[nH]c(=O)[nH]c12`
101 % of control

Source: PubChem BioAssay AID256
